Data provenance: paper PMC3547856

Target: TbGAPDH (Trypanosoma brucei brucei)
Sequence (P22512 whole entry): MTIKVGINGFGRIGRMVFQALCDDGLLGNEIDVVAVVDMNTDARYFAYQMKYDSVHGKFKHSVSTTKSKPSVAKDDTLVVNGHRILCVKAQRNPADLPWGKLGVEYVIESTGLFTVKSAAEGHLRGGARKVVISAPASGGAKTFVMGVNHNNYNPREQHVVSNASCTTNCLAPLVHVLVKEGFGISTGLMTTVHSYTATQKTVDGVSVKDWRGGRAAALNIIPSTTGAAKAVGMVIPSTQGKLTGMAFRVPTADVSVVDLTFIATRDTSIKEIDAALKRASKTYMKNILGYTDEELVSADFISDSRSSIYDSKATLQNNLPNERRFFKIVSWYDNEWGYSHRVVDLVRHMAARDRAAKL
Test: T. b. brucei glyceraldehyde-3-phosphate dehydrogenase enzyme-coupled spectrophotometric assay
Type: biochemical
Details: variation of NADH
Outcome measure: Ki (µM)
State just the number; it will be interpreted in µM.

Prompt: Look up Ki for this compound: `O=C1C=C(Oc2ccccc2)C(=O)c2ccccc21`
Completion: 3.6

----------
Biological target: UniProt P22512
Assay: T. b. brucei glyceraldehyde-3-phosphate dehydrogenase enzyme-coupled spectrophotometric assay
Format: biochemical
Conditions: standard conditions, 10 min pre-incubation, without dilution; read-out: IC50 TbGAPDH
Outcome measure: IC50 (µM)
State just the number; it will be interpreted in µM.

Prompt: Look up IC50 for this compound: O=C1C=C(Oc2ccccc2)C(=O)c2ccccc21 [B6, 2-phenoxy-1,4-naphthoquinone]
Completion: 7.25
